Tested on: P. falciparum female gametocytes
Assay: P. falciparum Dual Gamete Formation Assay (PfDGFA), female readout (Pfs25-positive female gametes)
Assay type: cell-based, Plasmodium falciparum NF54
Details: 2µM, 24h preincubation with gametocytes prior to induction of gametogenesis; replicate R1
// label = rule met if % inhibition female (individual replicates) R1 is not less than 10%, otherwise rule not met

These recorded examples may help you get a feel for the data.
Exercise: Check if % inhibition female (individual replicates) R1 >= 10% (inclusive). Item: O=C(Nc1ccc(C(=O)OCC2CCCCC2)cc1)N[C@@H](Cc1ccc(O)cc1)C(=O)NC1CCN(Cc2ccc(O)cc2)C1.O=C(O)C(F)(F)F (stereo partly shown)
Solution: rule not met

Exercise: Check if % inhibition female (individual replicates) R1 >= 10% (inclusive). Item: CC[C@H](C)CNC(=O)c1ccnc(-c2ccc(CN3CCC(N4CCCC4)CC3)cc2)c1.O=C(O)C(F)(F)F
Solution: rule met

Exercise: Check if % inhibition female (individual replicates) R1 >= 10% (inclusive). Item: COc1cc(CNCCCCCCNCc2cc(OC)cc3ccccc23)c2ccccc2c1.CS(=O)(=O)O
Solution: rule met

Exercise: Check if % inhibition female (individual replicates) R1 >= 10% (inclusive). Item: CC(=O)c1cccc(S(=O)(=O)NCCCNc2nc3cc(C)cc(C)c3cc2C#N)c1
Solution: rule not met

More entries:
Exercise: Check if % inhibition female (individual replicates) R1 >= 10% (inclusive). Item: O=C(C1CC1c1ccccc1)N(Cc1ccc(-c2ccc(CNCCc3ccccc3)cc2)cc1)C1CCNCC1.O=C(O)C(F)(F)F (stereo not shown)
Solution: rule met

Exercise: Check if % inhibition female (individual replicates) R1 >= 10% (inclusive). Item: Cl.c1ccc2c(Nc3ccc(Cc4ccc(Nc5c6ccccc6nc6ccccc56)cc4)cc3)c3ccccc3nc2c1
Solution: rule met

Exercise: Check if % inhibition female (individual replicates) R1 >= 10% (inclusive). Item: CCOc1ccccc1CCNC(C)Cc1ccc(C(=O)Nc2ccc(CC(C)NCCc3cccc(Cl)c3)cc2)cc1 (stereo not shown)
Solution: rule met

The reported numbers originate from paper PMC10584170.
